assayed.target: PepT1 (Oryctolagus cuniculus)
Sequence (P36836 whole entry): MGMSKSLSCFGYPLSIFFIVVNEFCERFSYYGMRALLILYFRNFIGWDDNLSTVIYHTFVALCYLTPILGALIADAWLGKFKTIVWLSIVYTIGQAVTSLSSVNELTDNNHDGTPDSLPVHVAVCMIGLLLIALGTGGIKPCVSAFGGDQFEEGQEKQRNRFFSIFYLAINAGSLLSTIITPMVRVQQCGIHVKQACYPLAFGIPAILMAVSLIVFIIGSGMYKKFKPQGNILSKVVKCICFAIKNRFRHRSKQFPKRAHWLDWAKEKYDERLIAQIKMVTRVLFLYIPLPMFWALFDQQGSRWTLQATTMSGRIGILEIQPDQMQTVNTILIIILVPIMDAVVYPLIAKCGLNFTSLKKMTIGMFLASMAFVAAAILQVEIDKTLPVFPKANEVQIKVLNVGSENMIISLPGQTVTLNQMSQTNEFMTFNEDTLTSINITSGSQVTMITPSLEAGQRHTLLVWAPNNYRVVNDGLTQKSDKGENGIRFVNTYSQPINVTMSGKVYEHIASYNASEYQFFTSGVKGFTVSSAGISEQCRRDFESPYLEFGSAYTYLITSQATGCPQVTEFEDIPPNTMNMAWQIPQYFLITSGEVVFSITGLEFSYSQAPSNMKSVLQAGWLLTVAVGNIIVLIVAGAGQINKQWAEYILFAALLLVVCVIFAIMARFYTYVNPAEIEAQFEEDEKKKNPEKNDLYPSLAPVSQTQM
assay.method.text: Inhibition of binding of 3H-D-Phe-Ala to PepT1-expressing P. pastoris cells
details: read-out: EC50: concentration inhibiting the binding of 3H-D-Phe-Ala to PepT1-expressing P. pastoris cells by 50%
Listing of entries alongside the reported pEC50.
Note: pEC50 values are expressed as the negative base-10 logarithm of concentration in M.

CCC(C)C(N)C(=O)N1CCSC1 (centres unmarked) [isoleucyl thiazolidine]; 3.01

Now for a further compound.
Ask: I'd like to know its pEC50. The compound in question is N[C@@H](CCC(=O)NO)C(=O)N1CCSC1 [H-Glu(NHOH)-thiazolidine]
Result: 2.50

###

Listing of entries alongside the reported pIC50.
assayed.target: purified porcine DPIV (Sus scrofa, UniProt P22411)
Sequence (P22411 whole entry): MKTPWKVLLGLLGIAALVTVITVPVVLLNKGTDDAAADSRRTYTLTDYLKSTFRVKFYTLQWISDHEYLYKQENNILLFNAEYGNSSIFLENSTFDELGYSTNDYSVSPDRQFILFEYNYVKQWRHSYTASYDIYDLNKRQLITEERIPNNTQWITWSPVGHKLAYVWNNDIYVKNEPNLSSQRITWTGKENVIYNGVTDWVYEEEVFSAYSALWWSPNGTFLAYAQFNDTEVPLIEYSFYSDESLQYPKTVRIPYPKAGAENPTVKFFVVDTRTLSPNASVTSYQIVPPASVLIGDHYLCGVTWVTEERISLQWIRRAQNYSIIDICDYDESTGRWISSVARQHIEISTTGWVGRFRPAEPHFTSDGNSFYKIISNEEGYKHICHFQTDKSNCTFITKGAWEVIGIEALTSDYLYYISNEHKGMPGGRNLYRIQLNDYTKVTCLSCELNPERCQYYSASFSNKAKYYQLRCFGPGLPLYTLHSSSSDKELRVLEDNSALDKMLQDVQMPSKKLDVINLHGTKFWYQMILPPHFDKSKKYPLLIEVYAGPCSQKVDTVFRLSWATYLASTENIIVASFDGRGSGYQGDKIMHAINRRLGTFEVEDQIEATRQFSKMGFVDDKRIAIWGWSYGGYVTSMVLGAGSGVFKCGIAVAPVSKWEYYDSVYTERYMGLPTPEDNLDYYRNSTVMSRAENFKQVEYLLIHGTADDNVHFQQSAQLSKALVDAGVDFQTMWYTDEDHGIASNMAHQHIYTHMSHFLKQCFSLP
Square brackets hold non-standard residues; d marks the D form. Peptide text beside a SMILES is read from it. * marks the point of attachment. aIle = CC[C@@H](C)[C@H](N)C(=O)O; Tle = CC(C)(C)[C@H](N)C(=O)O; Abu = CC[C@H](N)C(=O)O; Bn = c1ccc(C*)cc1
Note: pIC50 values are expressed as the negative base-10 logarithm of concentration in M.

CC[C@@H](C)[C@H](NC(=O)[C@@H]1CCCN1C(=O)[C@@H](N)Cc1ccc(O)cc1)C(=O)O [Tyr-Pro-allo-Ile] (H-Tyr-Pro-[aIle]-OH; N-terminus and C-terminus assumed); 4.19
CC[C@H](C)[C@H](NC(=O)[C@@H]1CCCN1C(=O)[C@@H](N)COCc1ccccc1)C(=O)O [Ser(Bzl)-Pro-Ile] (H-Ser(Bn)-Pro-Ile-OH; N-terminus and C-terminus assumed); 4.17
CC[C@H](C)[C@H](N)C(=O)N1CCC[C@H]1C(=O)N[C@H](C(=O)O)C(C)(C)C [Ile-Pro-t-butyl-Gly] (H-Ile-Pro-[Tle]-OH; N-terminus and C-terminus assumed); 4.08
CC[C@H](N)C(=O)N1CCC[C@H]1C(=O)N[C@H](C(=O)O)[C@@H](C)CC [Abu-Pro-Ile] (H-[Abu]-Pro-Ile-OH; N-terminus and C-terminus assumed); 4.46

Now for a further molecule.
Ask: I'd like to know its pIC50. The molecule in question is CC(C)[C@@H](NC(=O)[C@@H]1CCCN1C(=O)[C@@H](N)C(C)(C)C)C(=O)O [t-butyl-Gly-Pro-D-Val] (H-[Tle]-Pro-[dV]-OH; N-terminus and C-terminus assumed)
Result: 3.95

###

Consider molecules characterized by their pKi with dipeptidyl peptidase IV from porcine kidney (Sus scrofa).
Sequence (P22411 whole entry): as above
Square brackets hold non-standard residues; d marks the D form. Peptide text beside a SMILES is read from it. * marks the point of attachment. aIle = CC[C@@H](C)[C@H](N)C(=O)O; Tle = CC(C)(C)[C@H](N)C(=O)O; Nva = CCC[C@H](N)C(=O)O; Bn = c1ccc(C*)cc1
Note: pKi values are expressed as the negative base-10 logarithm of concentration in M.

Reference set, count: 5
CCC(C)C(N)C(=O)C1CCCCC1 (stereo not shown); 4.25
CC(C)C(N)C(=O)C1CCCC1 (stereo not shown); 4.88
CCC[C@H](N)C(=O)N1CCC[C@H]1C(=O)N[C@H](C(=O)O)[C@@H](C)CC [Nva-Pro-Ile] (H-[Nva]-Pro-Ile-OH; N-terminus and C-terminus assumed); 5.21
CC[C@@H](C)[C@H](NC(=O)[C@@H]1CCCN1C(=O)[C@@H](N)Cc1ccc(O)cc1)C(=O)O [Tyr-Pro-allo-Ile] (H-Tyr-Pro-[aIle]-OH; N-terminus and C-terminus assumed); 4.74
CC[C@H](C)[C@H](N)C(=O)N1CCC[C@H]1C(=O)N[C@H](C(=O)O)C(C)(C)C [Ile-Pro-t-butyl-Gly] (H-Ile-Pro-[Tle]-OH; N-terminus and C-terminus assumed); 4.72

Ask: I'd like to know its pKi. The molecule in question is CC(C)[C@H](NC(=O)[C@@H]1CCCN1C(=O)[C@@H](N)C(C)(C)C)C(=O)O [t-butyl-Gly-Pro-Val] (H-[Tle]-Pro-Val-OH; N-terminus and C-terminus assumed)
Result: 5.51

Ask: // same read-out, input: CC[C@H](C)[C@H](NC(=O)[C@@H]1CCCN1C(=O)[C@@H](N)COCc1ccccc1)C(=O)O [Ser(Bzl)-Pro-Ile] (H-Ser(Bn)-Pro-Ile-OH; N-terminus and C-terminus assumed)
Result: 4.67
